- target.entity: human TLR8 (Homo sapiens)
- Sequence (Q9NR97 27-1041): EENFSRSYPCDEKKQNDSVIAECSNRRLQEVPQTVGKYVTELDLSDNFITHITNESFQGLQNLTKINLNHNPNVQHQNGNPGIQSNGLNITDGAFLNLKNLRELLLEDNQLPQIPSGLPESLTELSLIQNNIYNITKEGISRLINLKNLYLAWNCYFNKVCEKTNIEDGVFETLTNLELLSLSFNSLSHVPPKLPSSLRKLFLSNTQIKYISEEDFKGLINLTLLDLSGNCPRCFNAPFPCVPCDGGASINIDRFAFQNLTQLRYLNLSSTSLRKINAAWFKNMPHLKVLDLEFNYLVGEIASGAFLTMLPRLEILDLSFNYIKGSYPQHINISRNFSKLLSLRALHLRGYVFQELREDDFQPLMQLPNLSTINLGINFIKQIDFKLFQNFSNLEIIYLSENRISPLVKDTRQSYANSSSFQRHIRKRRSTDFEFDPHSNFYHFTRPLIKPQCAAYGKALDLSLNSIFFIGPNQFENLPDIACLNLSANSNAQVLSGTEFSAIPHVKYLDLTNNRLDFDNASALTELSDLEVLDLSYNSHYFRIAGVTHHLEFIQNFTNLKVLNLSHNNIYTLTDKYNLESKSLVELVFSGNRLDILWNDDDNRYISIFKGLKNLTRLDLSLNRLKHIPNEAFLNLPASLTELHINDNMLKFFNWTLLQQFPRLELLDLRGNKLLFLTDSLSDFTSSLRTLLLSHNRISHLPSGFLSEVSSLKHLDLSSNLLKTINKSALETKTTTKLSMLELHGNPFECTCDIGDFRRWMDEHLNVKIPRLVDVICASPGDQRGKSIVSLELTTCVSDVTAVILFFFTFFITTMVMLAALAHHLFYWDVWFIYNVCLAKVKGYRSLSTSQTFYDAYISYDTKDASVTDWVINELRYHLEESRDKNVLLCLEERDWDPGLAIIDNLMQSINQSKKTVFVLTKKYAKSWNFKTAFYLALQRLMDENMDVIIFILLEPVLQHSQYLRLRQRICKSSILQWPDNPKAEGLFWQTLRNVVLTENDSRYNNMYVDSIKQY
- method.summary: TLR8 inhibition reporter assay (HEK-Blue cells, SEAP reporter, R848 stimulation)
- run.parameters: HEK-Blue cells overexpressing human TLR8, R848 15.9 μM
IC50 less than 400 nM is yes (1); IC50 greater than or equal to 400 nM is no (0).

[
  {
    "smiles.data": "COc1ccc(-c2[nH]c3ccc(C4CCN(C(=O)CCc5cccnc5)CC4)cc3c2CC(F)(F)F)cc1OC",
    "classification": "no (0)"
  },
  {
    "smiles.data": "COc1ccc(-c2[nH]c3ccc(C4CCN(C(=O)CNCC#N)CC4)cc3c2C(C)C)cc1OC",
    "classification": "yes (1)"
  },
  {
    "smiles.data": "CCOC(=O)c1c(C)[nH]c(CN2CCC(N3CCC(c4ccc5[nH]c(-c6ccc(OC)c(OC)c6)c(CC)c5c4)CC3)CC2)c1C",
    "classification": "yes (1)"
  },
  {
    "smiles.data": "COc1ccc(-c2[nH]c3ccc(C4CCN(C(=O)CCN5CCCCC5)CC4)cc3c2CC(F)(F)F)cc1OC",
    "classification": "yes (1)"
  },
  {
    "smiles.data": "CCc1c(-c2ccc(OC)c(OC)c2)[nH]c2ccc(C3CCN(C4CCN(Cc5ccc(-c6ccccc6)o5)CC4)CC3)cc12",
    "classification": "no (0)"
  }
]

Switching to the query record.
Query block: Dear reviewer, please state whether COc1ccc(-c2[nH]c3ccc(C4CCN(C(=O)COC5CCN(C)CC5)CC4)cc3c2C(C)C)cc1OC has IC50 strictly beneath 400 nM.
Result block: no (0)
